The measured values listed here are drawn from patent US10597388B2.

test system: barnyardgrass (Echinochloa crus-galli); assay: Test C greenhouse herbicide test, pre- and postemergence; format: in vivo; conditions: Preemergence, 125 g ai/ha; scale 0 to 100, 0 is no effect, 100 is complete control
From the text: […]
valueType: Plant response rating, Barnyardgrass

COC(=O)Oc1c(Br)nn(C)c(=O)c1-c1c(C)ccc2ccccc12 ... 90
Cc1sc2ccc(Cl)cc2c1-c1c(OS(C)(=O)=O)c(Cl)nn(C)c1=O ... 60
CCC(=O)Oc1c(C)nn(C)c(=O)c1-c1c(C)sc2ccc(Cl)cc12 ... 70
Cc1cc(C)c2sc(C)c(-c3c(OC(=O)OCCCl)c(C)nn(C)c3=O)c2c1 ... 80
CSCC(=O)Oc1c(C)nn(C)c(=O)c1-c1cccc2ccccc12 ... 75
